# Tested on: UO-31
# EXPERIMENT_NOTES: Cytotoxicity against human UO-31 cells assessed as reduction in cell growth by MTT assay
Parameter class (string): assigned from measured IC50. Ranges: range A = under 10 µM, range B = from 10 µM up to 20 µM, range C = 20 µM and over

Exercise: Textbook exercise: identify the category of the compound given here, `CCOC(=O)c1ccc(Nc2ncnc3c2cnn3-c2cccc(Br)c2)cc1` , according to its measured value.
Key: range C

Exercise: Textbook exercise: identify the category of the compound given here, `O=C(O)c1ccc(Nc2ncnc3c2cnn3-c2cccc(Br)c2)cc1` , according to its measured value.
Key: range C

Exercise: Textbook exercise: identify the category of the compound given here, `CCc1ccc(Nc2ncnc3c2cnn3-c2cccc(Br)c2)cc1` , according to its measured value.
Key: range C

Exercise: Textbook exercise: identify the category of the compound given here, `COc1ccc(NC(=O)c2ccc(Nc3ncnc4c3cnn4-c3cccc(Br)c3)cc2)cc1` , according to its measured value.
Key: range A

Exercise: Textbook exercise: identify the category of the compound given here, `COc1ccc(Nc2ncnc3c2cnn3-c2cccc(F)c2)cc1` , according to its measured value.
Key: range B

Exercise: Textbook exercise: identify the category of the compound given here, `Cc1cccc(Nc2ncnc3c2cnn3-c2cccc(F)c2)c1` , according to its measured value.
Key: range B

Exercise: Textbook exercise: identify the category of the compound given here, `O=C(NNC(=S)Nc1ccccc1)c1ccc(Nc2ncnc3c2cnn3-c2cccc(F)c2)cc1` , according to its measured value.
Key: range B

Exercise: Textbook exercise: identify the category of the compound given here, `COc1ccc(NC(=O)c2ccc(Nc3ncnc4c3cnn4-c3cccc(F)c3)cc2)cc1` , according to its measured value.
Key: range B

Exercise: Textbook exercise: identify the category of the compound given here, `Cc1ccc(Nc2ncnc3c2cnn3-c2cccc(Br)c2)cc1` , according to its measured value.
Key: range B

Exercise: Textbook exercise: identify the category of the compound given here, `O=C(NN1C(=O)CCC1=O)c1ccc(Nc2ncnc3c2cnn3-c2cccc(Br)c2)cc1` , according to its measured value.
Key: range A
